MEASURED TARGET: Activated human plasma kallikrein (Enzyme Research Laboratories, HPKa 1303) (human, UniProt P03952 20-638)
Sequence (P03952 20-638 limits assumed): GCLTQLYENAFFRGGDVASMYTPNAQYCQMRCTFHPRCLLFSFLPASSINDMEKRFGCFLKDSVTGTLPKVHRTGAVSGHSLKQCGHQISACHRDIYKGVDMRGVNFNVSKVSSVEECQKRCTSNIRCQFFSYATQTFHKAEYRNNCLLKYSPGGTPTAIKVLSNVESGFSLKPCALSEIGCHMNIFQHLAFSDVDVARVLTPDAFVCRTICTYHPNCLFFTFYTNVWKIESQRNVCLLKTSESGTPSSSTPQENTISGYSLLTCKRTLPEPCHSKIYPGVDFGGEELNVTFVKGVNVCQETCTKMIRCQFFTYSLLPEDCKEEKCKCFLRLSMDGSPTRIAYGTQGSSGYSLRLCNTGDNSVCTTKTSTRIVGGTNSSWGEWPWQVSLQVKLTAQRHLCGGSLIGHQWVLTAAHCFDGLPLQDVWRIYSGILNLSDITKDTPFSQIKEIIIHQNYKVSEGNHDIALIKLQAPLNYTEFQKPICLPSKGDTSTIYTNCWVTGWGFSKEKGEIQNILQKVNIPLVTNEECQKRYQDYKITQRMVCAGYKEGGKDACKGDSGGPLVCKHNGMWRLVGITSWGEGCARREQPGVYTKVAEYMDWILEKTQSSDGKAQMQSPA
ASSAY PROCEDURE: cell-based or functional assay
Bridge positions count the residues as written; N and C are the ends. Square brackets hold non-standard residues; d marks the D form. mXylyl = xylyl linker from dibromoxylene joining the two cysteines; NMeW = CN[C@@H](Cc1c[nH]c2ccccc12)C(=O)O; NMeY = CN[C@@H](Cc1ccc(O)cc1)C(=O)O; NMeT = CN[C@H](C(=O)O)[C@@H](C)O; NMeS = CN[C@@H](CO)C(=O)O; NMeA = CN[C@@H](C)C(=O)O
Record True whenever Avg. IC50 is at 300 nM or higher; record False when lower.

- BINDER: "Ac-CN[dY]WSPWTAC-NH2 (cysteine pairing not given here) [R2232]"
  CLASS NAME: "True"
- BINDER: "Ac-CN[NMeY]W[NMeS]PW[NMeT]AC-NH2 (disulfide 1-10) [R2224]"
  CLASS NAME: "True"
- BINDER: "Ac-CNYW[NMeS]PWTAC-NH2 (cysteine pairing not given here) [R2237]"
  CLASS NAME: "True"
- BINDER: "Ac-CNYWSPWT[NMeA]C-NH2 (cysteine pairing not given here) [R2234]"
  CLASS NAME: "False"
- BINDER: "Ac-CNY[dW]SPWTAC-NH2 (cysteine pairing not given here) [R2231]"
  CLASS NAME: "True"
- BINDER: "Ac-CN[NMeY]W[NMeS]PW[NMeT]AC-NH2 (linker 1-10 via mXylyl) [R2223]"
  CLASS NAME: "True"
- BINDER: "Ac-CNYWS[dP]WTAC-NH2 (cysteine pairing not given here) [R2229]"
  CLASS NAME: "True"
- BINDER: "Ac-CNYWSPWTA[dC]-NH2 (cysteine pairing not given here) [R2225]"
  CLASS NAME: "False"
- BINDER: "Ac-CNYWSPW[NMeT]AC-NH2 (cysteine pairing not given here) [R2235]"
  CLASS NAME: "False"
- BINDER: "Ac-CNYWSP[dW]TAC-NH2 (cysteine pairing not given here) [R2228]"
  CLASS NAME: "True"
- BINDER: "Ac-CNYWSPW[dT]AC-NH2 (cysteine pairing not given here) [R2227]"
  CLASS NAME: "True"
- BINDER: "Ac-CNY[NMeW]SPWTAC-NH2 (cysteine pairing not given here) [R2238]"
  CLASS NAME: "True"
